The reported measurements were obtained from the array DNA melting data of Ke et al. (doi:10.1101/2024.01.08.574731).

# Run Description: melting temperature; fluorescence melt of hairpins on a sequencing array, two-state fit, raised by 9.35 °C to match UV melts
# Protocol Conditions: sodium 0.088 M
Criterion met means recorded Tm is 50 °C or above; Criterion not met means it is below 50 °C.

CGTGTCGGAAACGAGACG (((.(((....))).)))    Criterion met

## Task Could you verify whether the entry GACGTTGGAAACAATGTC (((.(((....))).))) shows Tm of no less than 50 °C?
## Result Criterion not met

## Task Could you verify whether the entry GTCAACGAAAGTTAGAC ((((((....))).))) shows Tm of no less than 50 °C?
## Result Criterion not met

## Task Could you verify whether the entry GATCACTGTAGTGATC ((((((....)))))) shows Tm of no less than 50 °C?
## Result Criterion met
